test: DPPH radical scavenging activity
condition.label: 37.5 μg/ml
Answer f if Antioxidant activity, % is under 6%, and t if it is 6% or more.

Quick check, Antioxidant activity, % >= 6%? Cc1ccc2nc(NC(=O)CNC(=O)OCC3c4ccccc4-c4ccccc43)sc2c1 [Compound 9]
f

Subsequent entry: Cc1ccc2nc(NC(=O)CNC(=O)OC(C)(C)C)sc2c1 [Compound 2]
f

Request: Cc1ccc2nc(-c3ccc(NC(=O)C(Cc4ccccc4)NC(=O)OCc4ccccc4)cc3)sc2c1 (stereo not shown) [Compound 12]
f

Another compound to check: Cc1cccc2sc(NC(=O)CNC(=O)OCC3c4ccccc4-c4ccccc43)nc12 [Compound 11]
t

Now give it for Cc1ccc2nc(NC(=O)CNC(=O)OCc3ccccc3)sc2c1 [Compound 1] too.
f

And then COc1ccc(O)c(C(C)(C)C)c1 [BHA, reference compound] , what is it?
t

====

molecules and their reported melting point

{"columns": ["molecule", "melting point"],
 "data": [
  ["CCOc1ccc2nc(NC(=O)CNC(=O)OCc3ccccc3)sc2c1", "214 to 215 °C"],
  ["CCOc1ccc2nc(NC(=O)CNC(=O)OC(C)(C)C)sc2c1", "171 to 172 °C"],
  ["Cc1ccc2nc(NC(=O)CNC(=O)OCC3c4ccccc4-c4ccccc43)sc2c1", "220 to 221 °C"],
  ["Cc1ccc2nc(-c3ccc(NC(=O)C(Cc4ccccc4)NC(=O)OCc4ccccc4)cc3)sc2c1 (centres unmarked)", "227 to 228 °C"],
  ["CSCCC(NC(=O)OCc1ccccc1)C(=O)Nc1ccc(-c2nc3ccc(C)cc3s2)cc1 (centres unmarked)", "200 to 201 °C"],
  ["Cc1ccc2nc(NC(=O)CNC(=O)OC(C)(C)C)sc2c1", "212 to 213 °C"],
  ["Cc1ccc2nc(NC(=O)CNC(=O)OCc3ccccc3)sc2c1", "213 to 214 °C"]
]}

Would you kindly look at the next entry?
Request the reported melting point associated with Cc1cccc2sc(NC(=O)CNC(=O)OCC3c4ccccc4-c4ccccc43)nc12
218 to 219 °C

====

tgt: hCA I (Homo sapiens, UniProt P00915)
Sequence (P00915 whole entry): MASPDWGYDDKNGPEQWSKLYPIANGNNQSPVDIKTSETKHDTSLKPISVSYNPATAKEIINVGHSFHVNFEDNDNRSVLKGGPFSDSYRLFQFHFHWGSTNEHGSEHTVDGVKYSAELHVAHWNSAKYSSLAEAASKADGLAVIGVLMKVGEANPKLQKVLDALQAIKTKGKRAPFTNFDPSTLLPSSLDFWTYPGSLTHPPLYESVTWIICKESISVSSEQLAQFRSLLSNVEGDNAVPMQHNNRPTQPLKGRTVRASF
experimental.readout: Ki

Provide value of Ki for this record tested with hCA I (Homo sapiens, UniProt P00915): Cc1ccc2nc(NC(=O)CNC(=O)OC(C)(C)C)sc2c1 [Compound 2]
> 100 µM

====

test: DPPH radical scavenging activity
condition.label: 37.5 μg/ml
The following molecules are shown together with reported Antioxidant activity, % values.
Reply with just the number (in %).

Some molecules with recorded Antioxidant activity, %:
{"columns": ["molecule", "readout.value"],
 "data": [
  ["Cc1c(C)c2c(c(C)c1O)CC[C@@](C)(CCC[C@H](C)CCC[C@H](C)CCCC(C)C)O2 [α-Toc., α-tocopherol, reference compound]", 68.4],
  ["CCOc1ccc2nc(NC(=O)CNC(=O)OCc3ccccc3)sc2c1", 25.0],
  ["CS(=O)(=O)c1ccc2nc(NC(=O)CNC(=O)OCC3c4ccccc4-c4ccccc43)sc2c1", 22.5]
]}

Let us examine a further case.
Sample CCOc1ccc2nc(NC(=O)CNC(=O)OC(C)(C)C)sc2c1 — what was its Antioxidant activity, %?
22.5

====

test: DPPH radical scavenging activity
condition.label: 62.5 μg/ml
Antioxidant activity, % values for the compounds below.
I only need the number, in %, no unit after it.

A selection of reference data follows.
{"columns": ["compound", "Antioxidant activity, % / %"],
 "data": [
  ["Cc1ccc2nc(-c3ccc(NC(=O)C(Cc4ccccc4)NC(=O)OCc4ccccc4)cc3)sc2c1 (stereo not drawn)", 5.8],
  ["CSCCC(NC(=O)OCc1ccccc1)C(=O)Nc1ccc(-c2nc3ccc(C)cc3s2)cc1 (stereo not drawn)", 7.1]
]}

Now turn to the next compound.
Quick one: Antioxidant activity, % of CCOc1ccc2nc(NC(=O)CNC(=O)OC(C)(C)C)sc2c1 ?
24.8
